B1: SAM and SH3 domain-containing protein 1, residues 630 to 700; numbered along this chain, O94885 (parent)
chain: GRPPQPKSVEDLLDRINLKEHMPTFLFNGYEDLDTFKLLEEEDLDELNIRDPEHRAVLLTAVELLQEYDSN

variants of: B1; assay: abundance fitness (aPCA) (normalised: wild type 0, dead -1); higher = more abundant; growth selection in yeast, the domain comes from the species named; details: Homo sapiens
RESULT TYPE: abundance fitness
Please reply with the number alone, leaving off any unit.

Item under review: "E20C" . Reported abundance fitness?
-0.124

Item under review: "M22Q" . Reported abundance fitness?
-0.366

Item under review: "N17H" . Reported abundance fitness?
-0.2

Item under review: "L12H" . Reported abundance fitness?
-0.924

Item under review: "R55F" . Reported abundance fitness?
-0.864

Item under review: "Q66A" . Reported abundance fitness?
-0.317

Item under review: "T35H" . Reported abundance fitness?
0.022

Item under review: "D34H" . Reported abundance fitness?
-0.426

Item under review: "L33K" . Reported abundance fitness?
-1

Item under review: "Q5I" . Reported abundance fitness?
-0.02

Item under review: "K19S" . Reported abundance fitness?
0.085

Item under review: "G1P" . Reported abundance fitness?
-0.137

Item under review: "N48H" . Reported abundance fitness?
-0.056

Item under review: "T60S" . Reported abundance fitness?
0.227

Item under review: "L33E" . Reported abundance fitness?
-0.962

Item under review: "P52W" . Reported abundance fitness?
-0.782

Item under review: "N17D" . Reported abundance fitness?
-0.234

Item under review: "I49C" . Reported abundance fitness?
-0.728

Item under review: "L38I" . Reported abundance fitness?
-0.76

Item under review: "P6A" . Reported abundance fitness?
-0.421

Item under review: "L13I" . Reported abundance fitness?
-1.04

Item under review: "P3A" . Reported abundance fitness?
-0.115

Item under review: "E31Q" . Reported abundance fitness?
0.029

Item under review: "R2E" . Reported abundance fitness?
-0.634

Item under review: "L47C" . Reported abundance fitness?
-0.577

Item under review: "N28I" . Reported abundance fitness?
-1.08

Item under review: "E67D" . Reported abundance fitness?
0.02

Item under review: "K19T" . Reported abundance fitness?
0.042

Item under review: "H21F" . Reported abundance fitness?
-0.134

Item under review: "N48T" . Reported abundance fitness?
-0.916

Item under review: "E63R" . Reported abundance fitness?
0.133

Item under review: "D14M" . Reported abundance fitness?
-0.34

Item under review: "P23I" . Reported abundance fitness?
-0.398

Item under review: "R55S" . Reported abundance fitness?
-0.731

Item under review: "V62C" . Reported abundance fitness?
-0.241

Item under review: "N71G" . Reported abundance fitness?
0.041

Item under review: "L44K" . Reported abundance fitness?
-0.746

Item under review: "I16V" . Reported abundance fitness?
-0.199

Item under review: "L58D" . Reported abundance fitness?
-0.347

Item under review: "N71M" . Reported abundance fitness?
-0.071

Item under review: "L65S" . Reported abundance fitness?
-0.69

Item under review: "E20D" . Reported abundance fitness?
-0.498

Item under review: "Q66D" . Reported abundance fitness?
-0.49

Item under review: "P3T" . Reported abundance fitness?
-0.014

Item under review: "S8G" . Reported abundance fitness?
-0.536

Item under review: "L58G" . Reported abundance fitness?
-0.667

Item under review: "F36R" . Reported abundance fitness?
-0.794

Item under review: "N71P" . Reported abundance fitness?
0.005

Item under review: "N17F" . Reported abundance fitness?
-0.726

Item under review: "L58H" . Reported abundance fitness?
-0.53

Item under review: "D14N" . Reported abundance fitness?
-0.131

Item under review: "Y68E" . Reported abundance fitness?
0.21

Item under review: "T35Y" . Reported abundance fitness?
-0.587

Item under review: "V57F" . Reported abundance fitness?
-0.747

Item under review: "E63Q" . Reported abundance fitness?
-0.018

Item under review: "Y68S" . Reported abundance fitness?
0.14

Item under review: "R15Q" . Reported abundance fitness?
-0.017

Item under review: "L58P" . Reported abundance fitness?
-0.501

Item under review: "L47A" . Reported abundance fitness?
-0.698

Item under review: "H21T" . Reported abundance fitness?
-0.685

Item under review: "Y68G" . Reported abundance fitness?
0.168

Item under review: "D11W" . Reported abundance fitness?
-0.793

Item under review: "R55W" . Reported abundance fitness?
-1.14

Item under review: "G1A" . Reported abundance fitness?
-0.064

Item under review: "N28G" . Reported abundance fitness?
-0.157

Item under review: "D43W" . Reported abundance fitness?
-0.928

Item under review: "I49K" . Reported abundance fitness?
-0.863

Item under review: "T60L" . Reported abundance fitness?
-0.579

Item under review: "K19V" . Reported abundance fitness?
-0.293

Item under review: "R2V" . Reported abundance fitness?
-0.472

Item under review: "L47M" . Reported abundance fitness?
0.017

Item under review: "Q5Y" . Reported abundance fitness?
0.202

Item under review: "M22I" . Reported abundance fitness?
0.131

Item under review: "N28V" . Reported abundance fitness?
-0.939

Item under review: "F25D" . Reported abundance fitness?
-0.672

Item under review: "D69G" . Reported abundance fitness?
-0.132

Item under review: "E31K" . Reported abundance fitness?
0.124

Item under review: "A56W" . Reported abundance fitness?
-0.816

Item under review: "N17E" . Reported abundance fitness?
-0.333

Item under review: "E10L" . Reported abundance fitness?
-0.532

Item under review: "K19Y" . Reported abundance fitness?
-0.532

Item under review: "E31I" . Reported abundance fitness?
-0.288

Item under review: "L12Y" . Reported abundance fitness?
-0.672

Item under review: "E20W" . Reported abundance fitness?
-0.879

Item under review: "E40C" . Reported abundance fitness?
0.186

Item under review: "D43K" . Reported abundance fitness?
-0.117

Item under review: "P6D" . Reported abundance fitness?
-0.158

Item under review: "P23T" . Reported abundance fitness?
-0.019

Item under review: "E20H" . Reported abundance fitness?
-0.484
